- System: S. aureus ATCC 25923
- Protocol Summary: Qualitative antimicrobial screening, adapted disk diffusion
- Assay type: cell-based, Staphylococcus aureus
- Settings: Staphylococcus aureus, ATCC25923; S. aureus ATCC 25923, adapted diffusion assay; read-out: growth inhibition diameter
- Procedure: The antimicrobial activities of the synthesized compounds were determined against ATCC reference and clinical microbial strains, i.e., Bacillus subtilis ATCC 6633, Staphylococcus aureus ATCC 25923, Escherichia coli ATCC 25922, Klebsiella pneumoniae 350, Pseudomonas aeruginosa 1671 and Candida albicans ATCC 10231, using as positive controls the antibiotic ticarcillin and the antifungal agent fluconazole. […]
Quick reference for zone of inhibition at 5000 µg/mL (stock) among some molecules
Please answer using the number first and the unit second.

Molecule | Result
CCc1ccc2c(c1)C(=NOC(=O)Nc1ccc(F)cc1)c1ccccc1CO2 [Compound 7i] | 0 mm
CC1(C)S[C@@H]2[C@H](NC(=O)[C@H](C(=O)O)c3ccsc3)C(=O)N2[C@H]1C(=O)O [Ticarcillin, ticarcillin, reference compound] | 21 mm
CCc1ccc2c(c1)C(=NOC(=O)Nc1ccc(Cl)cc1Cl)c1ccccc1CO2 [Compound 7j] | 0 mm

Value of zone of inhibition at 5000 µg/mL (stock) reported for the molecule O=C(Nc1ccc(Cl)cc1Cl)ON=C1c2ccccc2COc2ccccc21 [Compound 7e] is 0 mm

Lab note: measured zone of inhibition at 5000 µg/mL (stock) of O=C(Nc1cccc(C(F)(F)F)c1)ON=C1c2ccccc2COc2ccccc21 [Compound 7f] was 8 mm

The molecule identified as O=C(Nc1ccc(Cl)cc1)ON=C1c2ccccc2COc2ccccc21 [Compound 7d] registered its zone of inhibition at 5000 µg/mL (stock) at 0 mm

Item: CCc1ccc2c(c1)C(=NOC(=O)Nc1ccccc1)c1ccccc1CO2 [Compound 7h] | zone of inhibition at 5000 µg/mL (stock): 0 mm

The recorded zone of inhibition at 5000 µg/mL (stock) for Cc1ccc2c(c1)C(=NOC(=O)Nc1ccc(Cl)cc1Cl)c1ccccc1CO2 [Compound 7g] is 0 mm

The measured zone of inhibition at 5000 µg/mL (stock) associated with O=C(Nc1cccc(Cl)c1)ON=C1c2ccccc2COc2ccccc21 [Compound 7c] reads 0 mm
